# Lookup of reported normalized growth keyed by entry
Experiment: chemical genetic growth profiling, strain panel (AID 1159580);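 note: tested at 20 µM; growth read once vehicle control cultures reached saturation at 30 °C; 1 = growth at the plate median or of vehicle wells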
Conditions: S. cerevisiae deletion strains, growth OD, locus YGL253W, strain hxk2, stronger effect = lower value
Among all 5,500 compounds or so, about 2,000 (36%) were called active. Roughly 18% stayed inconclusive and do not appear here. The list shows a part of the results.

{"Compound": "CC(=O)OCC(=O)[C@@]1(O)CCC2C3C[C@H](C)C4=CC(=O)C=CC4(C)C3[C@@H](O)CC21C (some centres undefined)", "normalized growth": "1.01 (inactive)"}
{"Compound": "O=C(O)CCc1nc(-c2ccccc2)c(-c2ccccc2)o1", "normalized growth": "0.957 (inactive)"}
{"Compound": "COc1cc(-c2cc(=O)c3c(O)c(OC)c(OC)c(OC)c3o2)cc(OC)c1OC", "normalized growth": "1 (inactive)"}
{"Compound": "CN(C)CC[C@H](c1ccc(Cl)cc1)c1ccccn1", "normalized growth": "1.01 (inactive)"}
{"Compound": "COC1CC(O[C@H]2CC[C@]3(C=O)C4CC[C@]5(C)C(C6=CC(=O)OC6)CC[C@]5(O)C4CC[C@]3(O)C2)OC(C)C1O (some centres undefined)", "normalized growth": "0.997 (inactive)"}
{"Compound": "COc1ccc(-c2cc(=O)c3c(O)cc(O)c(-c4cc(-c5cc(=O)c6c(O)cc(O)cc6o5)ccc4OC)c3o2)cc1", "normalized growth": "1.01 (inactive)"}
{"Compound": "COc1cc2c(cc1OC)-c1c(oc3cc(O)cc(O)c3c1=O)CO2", "normalized growth": "1.02 (inactive)"}
{"Compound": "CC1(C)S[C@@H]2C(N3C(=O)[C@@H](c4ccccc4)NC3(C)C)C(=O)N2[C@H]1C(=O)O (some centres undefined)", "normalized growth": "1.02 (inactive)"}
{"Compound": "COc1cc(O)c2c(=O)cc(-c3ccc(OC)c(-c4c(O)cc(O)c5c(=O)cc(-c6ccc(O)cc6)oc45)c3)oc2c1", "normalized growth": "1.03 (inactive)"}

---

Experiment: chemical genetic growth profiling, strain panel (AID 1159580);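 note: tested at 20 µM; growth read once vehicle control cultures reached saturation at 30 °C; 1 = growth at the plate median or of vehicle wells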
Details: S. cerevisiae deletion strains, growth OD, locus YOR001W, strain rrp6, stronger effect = lower value
In all, about 5,500 compounds went through this assay and about 2,000 (36%) were called active. Roughly 18% stayed inconclusive and do not appear here. The list shows a part of the results.
Kindly apply the following: fulfilled if normalized growth is less than 1, not fulfilled in every other case.

{"Compound": "CCC(=O)NCC[C@@H]1CCc2ccc3c(c21)CCO3", "Label Value": "fulfilled"}
{"Compound": "CO[C@H]1[C@@H](O)[C@@H](C)O[C@H](O[C@H]2CCC3(C)C4CCC5(C)[C@@H](C6=CC(=O)OC6)CC[C@]5(O)[C@@H]4CC[C@]3(O)C2)[C@@H]1O (some centres not stated)", "Label Value": "not fulfilled"}
{"Compound": "O=C(O)C1=CC(=C(c2ccc(O)c(C(=O)O)c2)c2ccc(O)c(C(=O)O)c2)C=CC1=O", "Label Value": "fulfilled"}
{"Compound": "C[C@H]1O[C@H](O[C@H]2[C@H](O)[C@@H](O)[C@@H](O[C@H]3[C@H](O)[C@@H](O)C(O)O[C@@H]3CO)O[C@@H]2CO)[C@H](O)[C@@H](O)[C@@H]1N[C@H]1C=C(CO)[C@@H](O)[C@H](O)[C@H]1O (some centres not stated)", "Label Value": "fulfilled"}
{"Compound": "Cc1ncc(CO)c(CO)c1O", "Label Value": "not fulfilled"}
{"Compound": "COC(=O)C[C@H]1C(C)(C)[C@@H](O)[C@@H]2CC3=C4CC(O)O[C@@H](c5ccoc5)[C@]4(C)CCC3[C@@]1(C)C2=O (some centres not stated)", "Label Value": "not fulfilled"}

---

Assay: chemical genetic growth profiling, strain panel (AID 1159580);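 note: tested at 20 µM; growth read once vehicle control cultures reached saturation at 30 °C; 1 = growth at the plate median or of vehicle wells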
Conditions: S. cerevisiae deletion strains, growth OD, locus YDL134C, strain PPH21, stronger effect = lower value
About 2,000 (36%) of roughly 5,500 compounds were called active. Roughly 18% stayed inconclusive and do not appear here. This is one part of the list.

{"Molecule": "NS(=O)(=O)c1cc2c(cc1C(F)(F)F)NC(Cc1ccccc1)NS2(=O)=O (stereo not drawn)", "normalized growth": 1.02}
{"Molecule": "NC(=O)c1ccc([N+](=O)[O-])cc1Cl", "normalized growth": 0.982}
{"Molecule": "CC(C)(C)c1ccc(Oc2ncccc2NC(=O)c2ccccc2C(F)(F)F)cc1", "normalized growth": 0.996}
{"Molecule": "O=C(O)c1oc(C(=O)O)c(OCc2ccccc2)c1OCc1ccccc1", "normalized growth": 0.998}
{"Molecule": "NC(=O)c1cc([N+](=O)[O-])cc([N+](=O)[O-])c1", "normalized growth": 1.01}
{"Molecule": "NC[C@H]1O[C@H](OC2[C@@H](N)C[C@@H](N)[C@H](O[C@H]3O[C@H](CO)[C@@H](O)[C@H](N)[C@H]3O)[C@H]2O)[C@H](O)[C@@H](O)[C@@H]1O (stereo partly drawn)", "normalized growth": 1.01}
{"Molecule": "Nc1ccc(S(=O)(=O)Nc2ncccn2)cc1", "normalized growth": 0.999}
{"Molecule": "CCOC(=O)C1C(=O)C=C(c2cccs2)CC1c1ccc(OC)c(OC)c1Cl (stereo not drawn)", "normalized growth": 0.989}
{"Molecule": "Cc1c(C(N)=O)cc([N+](=O)[O-])cc1[N+](=O)[O-]", "normalized growth": 0.97}
{"Molecule": "Cc1onc(-c2ccccc2)c1C(=O)On1c(-c2ccccc2)nc2ccccc2c1=O", "normalized growth": 0.922}
{"Molecule": "Cc1cc(N)c2ccccc2[n+]1CCCCCCCCCC[n+]1c(C)cc(N)c2ccccc21", "normalized growth": 0.0503}
{"Molecule": "CO[C@H]1[C@H](O)[C@@H](O[C@H]2CC[C@]3(C=O)C4CC[C@]5(C)[C@@H](C6=CC(=O)OC6)CC[C@]5(O)C4CC[C@@H]3C2)O[C@@H](C)[C@@H]1O (stereo partly drawn)", "normalized growth": 0.986}
{"Molecule": "COc1ccc(-c2cc(=O)c3c(O)c(OC)c(OC)cc3o2)cc1O", "normalized growth": 1}
{"Molecule": "COC(=O)C[C@H]1C(C)(C)[C@@H](O)[C@@H]2CC3=C4CC(O)O[C@@H](c5ccoc5)[C@]4(C)CCC3[C@@]1(C)C2=O (stereo partly drawn)", "normalized growth": 0.978}
{"Molecule": "Cc1ccc(SC(=O)c2cccnc2Oc2ccccc2)cc1", "normalized growth": 0.983}
{"Molecule": "CCCc1nn(C)c2c(=O)[nH]c(-c3cc(S(=O)(=O)N4CCN(C)CC4)ccc3OCC)nc12", "normalized growth": 1.03}
{"Molecule": "CCOC(=O)CC(SP(=S)(OC)OC)C(=O)OCC (stereo not drawn)", "normalized growth": 1.01}
{"Molecule": "C[C@H]1OC(O[C@H]2[C@@H](O)CC(O[C@H]3[C@@H](O)C[C@H](O[C@H]4CC[C@]5(C)C6CC[C@]7(C)[C@@H](C8=CC(=O)OC8)[C@@H](O)C[C@]7(O)[C@@H]6CC[C@@H]5C4)O[C@@H]3C)O[C@@H]2C)C[C@H](O)C1O (stereo partly drawn)", "normalized growth": 1.01}
{"Molecule": "COc1nc(NC(C)C)nc(NC(C)C)n1", "normalized growth": 1}
{"Molecule": "COC1=CC(=O)C=C(OC)C1=O", "normalized growth": 0.979}
{"Molecule": "CC(C)Nc1nc(Cl)nc(NC(C)C)n1", "normalized growth": 1.01}
{"Molecule": "CCOC(=O)/C(C#N)=C/Nc1ccc2c(c1)OCO2", "normalized growth": 0.963}
{"Molecule": "O=C(O/N=C1/CCCc2[nH]c3ccccc3c21)c1ccc(Cl)cc1Cl", "normalized growth": 0.968}
{"Molecule": "CC1(C)O[C@@H]2CC3C4C[C@H](F)C5=CC(=O)CC[C@]5(C)C4[C@@H](O)C[C@]3(C)[C@]2(C(=O)CO)O1 (stereo partly drawn)", "normalized growth": 1.01}
{"Molecule": "C[C@@H]1O[C@@H](O[C@H]2CC[C@]3(C=O)C4CC[C@]5(C)[C@@H](C6=CC(=O)OC6)CC[C@]5(O)C4CC[C@]3(O)C2)[C@H](O)[C@H](O)[C@H]1O (stereo partly drawn)", "normalized growth": 0.989}
{"Molecule": "CC(=O)OC1CC[C@@]2(C)C(CCC3C2CC[C@]2(C)C(C4=CC(=O)OC4)C(OC(C)=O)CC32O)C1 (stereo partly drawn)", "normalized growth": 1.03}
{"Molecule": "CO[C@@H]1C[C@H](O[C@H]2CC[C@]3(C)C4CC[C@]5(C)[C@@H](C6=CC(=O)OC6)CC[C@]5(O)[C@@H]4CC[C@]3(O)C2)O[C@H](C)[C@@H]1O (stereo partly drawn)", "normalized growth": 1}
{"Molecule": "C[C@H]1O[C@@H](O[C@H]2[C@@H](O)C[C@H](O[C@H]3[C@@H](O)C[C@H](O[C@H]4CC[C@]5(C)C6C[C@@H](O)[C@]7(C)[C@@H](C8=CC(=O)OC8)CC[C@]7(O)C6CC[C@@H]5C4)O[C@@H]3C)O[C@@H]2C)C[C@H](O)[C@@H]1O (stereo partly drawn)", "normalized growth": 1.03}
{"Molecule": "Cc1ccc(OS(=O)(=O)c2ccc(Cl)cc2)c([N+](=O)[O-])n1", "normalized growth": 0.968}
{"Molecule": "N#Cc1c(Cl)cccc1N1CCC(C(=O)NC(=O)Nc2ccc(Cl)cc2)CC1", "normalized growth": 1.03}
{"Molecule": "O=C(Nc1ccccc1)N1CCN(C(c2ccccc2)c2ccccc2)CC1", "normalized growth": 1.01}
{"Molecule": "CC1=C2C(O)C(=O)OC3CC4C(C)(C)C(=O)C=C[C@]4(C)C(CC1)[C@]23C (stereo partly drawn)", "normalized growth": 1.04}
{"Molecule": "C[C@H]1O[C@@H](O[C@H]2[C@@H](O)C[C@H](O[C@H]3[C@@H](O)C[C@H](O[C@H]4CC[C@]5(C)C6CC[C@]7(C)[C@@H](C8=CC(=O)OC8)CC[C@]7(O)C6CC[C@@H]5C4)O[C@@H]3C)O[C@@H]2C)C[C@H](O)[C@@H]1O (stereo partly drawn)", "normalized growth": 1.02}

Just for reference, PubChem BioAssay AID1159580 is where these values come from.
